Measured Cell_Efficacy accompanies every entry in the list below.
Molecular target: OE19 (3A1) (Homo sapiens, UniProt P30838)
Experiment: Cellular ALDEFLUOR assay in OE19 cells (preferential ALDH3A1 expression)
Conditions: Table S5, OE19 cells
Answer with a number only.

In the examples that follow, each entry is paired with its recorded Cell_Efficacy.
1) C[S+](=O)([O-])c1cccc(CNC(=O)c2csc(N3CCN(c4cccc(C(F)(F)F)c4)CC3)n2)c1
-83.43
2) O=C(NCc1cccc(Oc2ccccc2)c1)c1csc(N2CCN(c3cccc(C(F)(F)F)c3)CC2)n1
-119.85
3) O=C(NCc1ccc2c(c1)CNC2=O)c1csc(N2CCN(c3cccc(C(F)(F)F)c3)CC2)n1
0.00

// switching to the query compound
Query :: Cell_Efficacy lookup needed for O=C(NCc1ccc2c(c1)COC2=O)c1csc(N2CCN(c3cccc(C(F)(F)F)c3)CC2)n1 , thanks.
Result :: -73.69

====

Target: Human ALDH3A1 (Homo sapiens, UniProt P30838)
Sequence (P30838 1-453): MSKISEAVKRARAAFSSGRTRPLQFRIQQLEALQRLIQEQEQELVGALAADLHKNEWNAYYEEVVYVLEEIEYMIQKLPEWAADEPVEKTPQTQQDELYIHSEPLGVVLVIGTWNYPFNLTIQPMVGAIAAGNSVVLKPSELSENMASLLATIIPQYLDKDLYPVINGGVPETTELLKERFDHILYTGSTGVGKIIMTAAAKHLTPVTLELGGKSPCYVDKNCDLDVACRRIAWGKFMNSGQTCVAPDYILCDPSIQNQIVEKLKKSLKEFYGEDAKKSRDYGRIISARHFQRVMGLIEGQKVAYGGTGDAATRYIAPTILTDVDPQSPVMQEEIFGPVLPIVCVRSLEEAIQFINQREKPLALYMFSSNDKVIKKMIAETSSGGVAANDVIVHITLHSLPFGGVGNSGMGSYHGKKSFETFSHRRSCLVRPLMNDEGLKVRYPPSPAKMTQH
Test: ALDH3A1 biochemical assay (benzaldehyde/NADP+, diaphorase-resazurin readout, 1,536-well)
Details: Table S4, biochemical curve class
Each entry below lists one item and its recorded CC-v2 value.
// no unit string in output, number only

1. Cc1cccc(CNC(=O)c2csc(N3CCN(c4cccc(F)c4)CC3)n2)c1 [NCGC01219288-01]
-1.1
2. Cc1cccc(CNC(=O)c2csc(N3CCN(c4ccc(C#N)cc4)CC3)n2)c1 [NCGC01211190-01]
-1.2
3. CCc1ccc(N2CCN(c3nc(C(=O)NCc4cccc(C)c4)cs3)CC2)cc1Cl [NCGC01211398-01]
-1.1
4. Cc1cccc(CNC(=O)c2csc(N3CCN(c4cccc(Br)c4)CC3)n2)c1 [Compound 10]
-1.1
5. CCOC(=O)Cc1ccc(N2CCN(c3nc(C(=O)NCc4cccc(C)c4)cs3)CC2)cc1 [NCGC01212809-01]
-1.1
6. Cc1cccc(CNC(=O)c2csc(N3CCN(c4ccc([S+](=O)([O-])F)cc4)CC3)n2)c1 [NCGC01211171-01]
-1.2
7. Cc1cccc(CNC(=O)c2csc(N3CCN(c4ccccc4Cl)CC3)n2)c1 [NCGC01211121-01]
-1.1
8. Cc1cccc(CNC(=O)c2csc(N3CCN(c4ccccc4F)CC3)n2)c1 [NCGC01211127-01]
-1.1

Query :: Given Cc1cccc(CNC(=O)c2csc(N3CCN(c4cncc(Br)c4)CC3)n2)c1 [NCGC01212814-01] , state its recorded CC-v2.
Result :: -1.1

Query :: // returns reported CC-v2 for input Cc1cccc(CNC(=O)c2csc(N3CCN(c4ccc(F)c(Cl)c4)CC3)n2)c1 [Compound 12]
Result :: -1.1

Query :: GET /values?readout=CC-v2&item= Cc1cccc(CNC(=O)c2csc(N3CCN(c4ccc(C5(C#N)CC5)cc4)CC3)n2)c1 [NCGC01210256-01]
Result :: -1.2
